test: Human liver microsome stability assay
Format: in vitro ADME
setup-conditions: both sexes, human, microsomes, pH 7.4
The entries below come with measured half-life at 0.5 μM values attached.
Numeric answer only, unit min assumed.

Worked cases, half-life at 0.5 μM given:
Cn1cc(-c2cc(S(C)(=O)=O)ccc2Oc2ccc(F)cc2F)c2cc(CNc3ccccc3)[nH]c2c1=O [Example 282] :: 9
Cn1cc(-c2cc(NS(=O)(=O)CC(F)(F)F)ccc2OC2CCOCC2)c2cc[nH]c2c1=O [Example 100] :: 77
Cn1cc(-c2cc(-c3ccc(N)nc3)ccc2OCC2CC2)c2cc[nH]c2c1=O [Example 326] :: 112
Cn1cc(-c2cc(C(=O)NCc3ccc(OC(F)(F)F)cc3)ccc2Oc2ccc(F)cc2F)c2cc[nH]c2c1=O [Example 126] :: 100
Cn1cc(-c2cc(S(=O)(=O)N3CCCC3)ccc2OCC2CC2)c2cc[nH]c2c1=O [Example 302] :: 5
CCOC(=O)c1cc2c(-c3cc(N)ccc3Oc3ccccc3)cn(C)c(=O)c2[nH]1 [Example 69] :: 6
Cn1cc(-c2cc(NS(C)(=O)=O)ccc2Oc2ccc(F)cc2Cl)c2cc[nH]c2c1=O [Example 34] :: 37

Q. # lookup: half-life at 0.5 μM of Cn1cc(-c2cc(S(=O)(=O)N3CCOCC3)ccc2OCC2CC2)c2cc[nH]c2c1=O [Example 286]
A. 10

###

test-target: human BRD4 second bromodomain (BDII_E352-M457) (Homo sapiens (Human))
test: TR-FRET bromodomain binding assay, BRD4 second bromodomain
The entries below come with measured Ki values attached.
Numeric answer only, unit nM assumed.

Worked cases, Ki given:
Cn1cc(-c2cc(-c3ccc(N)nc3)ccc2OCC2CC2)c2cc[nH]c2c1=O :: 272
Cn1cc(-c2cc(S(C)(=O)=O)ccc2Oc2ccccc2)c2cc[nH]c2c1=O :: 1.7
CCS(=O)(=O)c1cnc(Oc2ccc(F)cc2F)c(-c2cn(C)c(=O)c3[nH]ccc23)c1 :: 21.7

// next entry
Q. # lookup: Ki of Cn1cc(-c2cc(NC(=O)C(C)(C)C)ccc2Oc2ccc(F)cc2F)c2cc[nH]c2c1=O
A. 124

###

test: Rat liver microsome stability assay
Type: in vitro ADME
setup-conditions: rat liver microsomes (male Sprague-Dawley), 0.5 μM test compound, 0.25 mg/mL microsomal protein, pH 7.4, 37° C.; read-out: Stability in rat liver microsomes (t1/2 in minutes)
The entries below come with measured half-life at 0.5 μM values attached.
Numeric answer only, unit min assumed.

Worked cases, half-life at 0.5 μM given:
Cn1cc(-c2cc(S(=O)(=O)N3CCCC3)ccc2OCC2CC2)c2cc[nH]c2c1=O :: 4
Cn1cc(-c2cc(CCO)ccc2OCc2ccccc2)c2cc[nH]c2c1=O :: 6
Cn1cc(-c2cc(S(C)(=O)=O)ccc2Oc2cccc(N)c2)c2cc[nH]c2c1=O :: 23
Cn1cc(-c2cc(NS(C)(=O)=O)ccc2Oc2ccccc2)c2cc(C(=O)O)[nH]c2c1=O :: 9

Q. # lookup: half-life at 0.5 μM of CCCS(=O)(=O)Nc1ccc(Oc2ccc(C#N)cc2)c(-c2cn(C)c(=O)c3[nH]ccc23)c1
A. 102

Q. And what about the compound CCS(=O)(=O)c1ccc(OC2CCC3(CC2)OCCO3)c(-c2cn(C)c(=O)c3[nH]ccc23)c1 ?
A. 15

Q. And what about the compound Cn1cc(-c2cc(NS(=O)(=O)CCF)ccc2Oc2ccc(F)cc2F)c2cc[nH]c2c1=O ?
A. 3
